Ref: ChEMBL document CHEMBL3885881

Collected ERYTHROCYTE COUNT values appear next to each entry.
# Organism: Rattus norvegicus
# PROTOCOL_DETAILS: DrugMatrix - Regimen: Daily Repeat
# Type: toxicity, organism-based, Sprague-Dawley
# Design: regimen Daily Repeat, gender Male, age 6-8 weeks
# SETUP_CONDITIONS: in vivo, po, 0 mg/kg, 120 h, tissue Blood, route oral GAVAGE, dose level Control, time 5 day, vehicle .5 % CMC
Field: value (include unit after the number)

MOLECULE: Cc1ccc(/N=C/N(C)/C=N/c2ccc(C)cc2C)c(C)c1
REPORTED_ENDPOINT: ERYTHROCYTE COUNT
MEASURED: 5.71 x10E6/uL

Q. I'd like to know its ERYTHROCYTE COUNT. The molecule in question is CC1CC(OC(=O)C(O)c2ccccc2)CC(C)(C)C1 (centres undefined) [CYCLANDELATE]
A. 6.12 x10E6/uL

Q. Could you tell me which ERYTHROCYTE COUNT is on file for `Nc1ccn([C@H]2CC[C@@H](CO)O2)c(=O)n1` ?
A. 7.02 x10E6/uL

Q. Consider the molecule `N=C(N)NCCN1CCCCCCC1` and give its measured ERYTHROCYTE COUNT.
A. 6.12 x10E6/uL

Q. # get_value(readout='ERYTHROCYTE COUNT', item= `CCn1cc(C(=O)O)c(=O)c2cc(F)c(N3CCNCC3)cc21` )
A. 5.71 x10E6/uL

Q. Record request: ERYTHROCYTE COUNT value, item `OCCN(CCO)c1nc(N2CCCCC2)c2nc(N(CCO)CCO)nc(N3CCCCC3)c2n1`
A. 6.12 x10E6/uL

Q. Tell me the measured ERYTHROCYTE COUNT of `COc1nc(C)nc(Cl)c1N=C1NCCN1` , please.
A. 5.79 x10E6/uL

Q. // ERYTHROCYTE COUNT lookup, key: `O=C(CCCN1CC=C(n2c(=O)[nH]c3ccccc32)CC1)c1ccc(F)cc1`
A. 6.96 x10E6/uL

Q. I am curious: what ERYTHROCYTE COUNT value has been reported for `CCOP(=S)(OCC)Oc1nc(Cl)c(Cl)cc1Cl` ?
A. 6.69 x10E6/uL

====

# Species on record: Rattus norvegicus
# PROTOCOL_DETAILS: DrugMatrix - Regimen: Daily Repeat
# Assay type: toxicity, organism-based, Sprague-Dawley
# Set-up: regimen Daily Repeat, gender Male, age 6-8 weeks
# SETUP_CONDITIONS: in vivo, iv, 0 mg/kg, 72 h, tissue Plasma, dose level Control, time 3 day, vehicle 100 % SALINE
Starred links: 1 amine or outer side, 2 acyl side, 3 side chain; linkers in the order of their positions; H or OH if unused. Positions of bridges follow the written chain, without caps; N, C: chain ends. Non-standard residues stand in square brackets, D forms with d. Residues, ends and D or L forms follow the SMILES beside them. Chains are numbered I, II in the order given. Actinocin(9to1) = Cc1c2oc3c(C)ccc(C(=O)[*:1])c3nc-2c(C(=O)[*:2])c(N)c1=O; NMeV = CN[C@H](C(=O)O)C(C)C; Sar = CNCC(=O)O
REPORTED_ENDPOINT: ALKALINE PHOSPHATASE (u/L)
Answer with a number only, understood to be in u/L.

Below, each entry is followed by its recorded ALKALINE PHOSPHATASE result.
COMPOUND: CC[C@]1(O)C[C@H]2CN(CCc3c([nH]c4ccccc34)[C@@](C(=O)OC)(c3cc4c(cc3OC)N(C=O)[C@H]3[C@@](O)(C(=O)OC)[C@H](OC(C)=O)[C@]5(CC)C=CCN6CC[C@]43[C@@H]65)C2)C1
ALKALINE PHOSPHATASE / u/L: 351.17
//
COMPOUND: COc1cc2c3cc1Oc1cc(ccc1O)C[C@@H]1c4c(cc(OC)c(O)c4Oc4ccc(cc4)C[C@@H]3N(C)CC2)CC[N+]1(C)C.[Cl-]
ALKALINE PHOSPHATASE / u/L: 421
//
COMPOUND: Cc1ccc(N(CC2=NCCN2)c2cccc(O)c2)cc1
ALKALINE PHOSPHATASE / u/L: 414.33

We next turn to a different compound, shown below.
Q. Which value of ALKALINE PHOSPHATASE has been reported for Cc1c2oc3c(C)ccc(C(=O)N[C@@H]4C(=O)N[C@H](C(C)C)C(=O)N5CCC[C@H]5C(=O)N(C)CC(=O)N(C)[C@@H](C(C)C)C(=O)O[C@@H]4C)c3nc-2c(C(=O)N[C@@H]2C(=O)N[C@H](C(C)C)C(=O)N3CCC[C@H]3C(=O)N(C)CC(=O)N(C)[C@@H](C(C)C)C(=O)O[C@@H]2C)c(N)c1=O [DACTINOMYCIN] (I: T[dV]P[Sar][NMeV] / II: T[dV]P[Sar][NMeV]; ester I:1-I:C, II:1-II:C; linker I:N-II:N via Actinocin(9to1)) in the records?
A. 374.67

====

# Organism: Rattus norvegicus
# PROTOCOL_DETAILS: DrugMatrix - Regimen: Daily Repeat
# Type: toxicity, organism-based, Sprague-Dawley
# Design: regimen Daily Repeat, gender Male, age 6-8 weeks
# SETUP_CONDITIONS: in vivo, po, 0 mg/kg, 72 h, tissue Plasma, route oral GAVAGE, dose level Control, time 3 day, vehicle 100 % WATER
Overview of reported BLOOD UREA NITROGEN across a group of compounds:
A number alone suffices; assume mg/dL.

COMPOUND: c1ccc([C@H]2CN3CCSC3=N2)cc1 [LEVAMISOLE]
BLOOD UREA NITROGEN [mg/dL]: 16.5

Q. Quick one: BLOOD UREA NITROGEN for C[C@H]1c2cccc(O)c2C(=O)C2=C(O)[C@]3(O)C(=O)C(C(N)=O)=C(O)[C@@H](N(C)C)[C@@H]3[C@@H](O)[C@@H]21.O [DOXYCYCLINE] ?
A. 15.83

Q. What BLOOD UREA NITROGEN value was documented for this compound, Nc1c2c(nc3ccccc13)CCCC2 [TACRINE] ?
A. 14.67

Q. Quick check: BLOOD UREA NITROGEN of CC(O)CO (stereo not given) [PROPYLENE GLYCOL] ?
A. 14.83

Q. # lookup: BLOOD UREA NITROGEN of C[C@](N)(Cc1ccc(O)c(O)c1)C(=O)O [METHYLDOPA]
A. 15.33

Q. Which measured BLOOD UREA NITROGEN value corresponds to Cn1cc[nH]c1=S [METHIMAZOLE] ?
A. 12.83

Q. State the recorded BLOOD UREA NITROGEN for this entry: C[C@H](CS)C(=O)N1CCC[C@H]1C(=O)O [CAPTOPRIL]
A. 14.5

Q. Consider the compound Cc1onc(-c2ccccc2Cl)c1C(=O)N[C@@H]1C(=O)N2[C@@H]1SC(C)(C)[C@@H]2C(=O)O [CLOXACILLIN] and give its measured BLOOD UREA NITROGEN.
A. 14.83

Q. Item Clc1cccc(Cl)c1N=C1NCCN1 [CLONIDINE] has what recorded BLOOD UREA NITROGEN?
A. 14.33

Q. Quick one: BLOOD UREA NITROGEN of CNNCc1ccc(C(=O)NC(C)C)cc1 [PROCARBAZINE] ?
A. 13.67

Q. What value of BLOOD UREA NITROGEN has been reported for the following compound? NCCCCCC(=O)O [AMINOCAPROIC ACID]
A. 14.83

Q. Bench note: what BLOOD UREA NITROGEN did COc1cc2nc(N3CCN(C(=O)C4COc5ccccc5O4)CC3)nc(N)c2cc1OC (stereo not given) [DOXAZOSIN] show?
A. 15.83

Q. Quick check: BLOOD UREA NITROGEN of CN(C)CCCN1c2ccccc2Sc2ccc(Cl)cc21 [CHLORPROMAZINE] ?
A. 15

Q. Consider the compound shown here: N[C@@H](Cc1ccc(O)c(O)c1)C(=O)O [LEVODOPA] What is its recorded BLOOD UREA NITROGEN?
A. 15.83

Q. Record request: BLOOD UREA NITROGEN value, item C=CCC1(C(C)CCC)C(=O)NC(=O)NC1=O (stereo not given) [SECOBARBITAL]
A. 13.17

====

Reported HEMOGLOBIN values are given for each entry in this list.
# Species on record: Rattus norvegicus
# PROTOCOL_DETAILS: DrugMatrix - Regimen: Daily Repeat
# Format: toxicity, organism-based, Sprague-Dawley
# Set-up: regimen Daily Repeat, gender Male, age 6-8 weeks
# SETUP_CONDITIONS: in vivo, po, 0 mg/kg, 72 h, tissue Blood, route oral GAVAGE, dose level Control, time 3 day, […]
Field: numeric (G/DL). Do not append units.

Examples from the recorded data:
COMPOUND: CN(C)c1nc(N(C)C)nc(N(C)C)n1
REPORTED_ENDPOINT: HEMOGLOBIN
MEASURED: 13.57

COMPOUND: Cc1oncc1C(=O)Nc1ccc(C(F)(F)F)cc1 [LEFLUNOMIDE]
REPORTED_ENDPOINT: HEMOGLOBIN
MEASURED: 12.37

COMPOUND: CCC(C)n1ncn(-c2ccc(N3CCN(c4ccc(OCC5COC(Cn6cncn6)(c6ccc(Cl)cc6Cl)O5)cc4)CC3)cc2)c1=O (stereo unspecified)
REPORTED_ENDPOINT: HEMOGLOBIN
MEASURED: 13.38

COMPOUND: CCOC(=O)C1=C(COCCN)NC(C)=C(C(=O)OC)C1c1ccccc1Cl (stereo unspecified)
REPORTED_ENDPOINT: HEMOGLOBIN
MEASURED: 13.57

COMPOUND: O=NN(CCCl)C(=O)NC1CCCCC1
REPORTED_ENDPOINT: HEMOGLOBIN
MEASURED: 13.57

Now take the following compound into account.
Q. Looking for the measured HEMOGLOBIN of CC(C)C(=O)Nc1ccc([N+](=O)[O-])c(C(F)(F)F)c1 [FLUTAMIDE] , can you help?
A. 13.23
